Origin of measurements: ChEMBL document CHEMBL3352060

target: Dual specificity calcium/calmodulin-dependent 3',5'-cyclic nucleotide phosphodiesterase 1C (Homo sapiens); assay: Inhibition of PDE1C (unknown origin) at 10 uM
test_readout: inhibition (%)

>  <record_smiles>
Cc1cc2c3ccccc3cc(CCc3nc(-c4ccccc4)cn3C)n2n1

>  <quantity_unit>
%

>  <inhibition>
-1

$$$$

I. Cc1cc2c3ccncc3cc(CCc3nc(-c4ccccc4)cn3C)n2n1
II. COCc1cc2c3cccnc3cc(CCc3nc(-c4ccccc4)cn3C)n2n1
III. Cc1cc2c3ccccc3cc(CCc3nc4ccccc4n3C)n2n1
Request: Parameters: sort_field (inhibition), sort_dir (desc). Give your ranking as a list of the labels in the requested order.
Response: I, II, III
(I: 24%, II: 7%, III: -7%)
